These data points were gathered from paper PMC9274004.

- subject-of-test: T1, PDZD7 first PDZ domain (PDZ1 construct; A81 to G167) (mouse, Natural entry residue kept at 81: the paper prints A81 but the entry has Ser, so the Ala is probably a cloning junction or a misprint. The GST tag was removed by TEV; a short N-terminal scar is possib)
- T1 chain: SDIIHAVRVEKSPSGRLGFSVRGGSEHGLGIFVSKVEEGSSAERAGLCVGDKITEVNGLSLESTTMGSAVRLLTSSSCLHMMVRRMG
- experiment-notes: NMR titration; 1H-15N HSQC chemical shift perturbations of the labelled PDZ construct on addition of ADGRV1pbm peptide; Tris HCl pH 7.5 (50 mM), 25°C; apparent Kd, mean over at least 10 shifting peaks
- condition-details: both partners purified

[
  {
    "binder": "VELRRIPIADTHL (ADGRV1, last 13 residues, free C-terminal carboxylate as printed (-COOH); The other ADGRV1 constructs are murine) [ADGRV1pbm peptide (last 13 residues of ADGRV1, with its PDZ binding motif)]",
    "Kd": "1.31 mM"
  }
]
